# protocol-notes: gradient 5% acetonitrile 3 min, to 50% in 2 min, to 85% in 15 min, held 3 min, 100 µL/min
# experimental-conditions: column: Zorbax Extend-C18 2.1 x 50 mm; eluents: water / acetonitrile, 0.1% formic acid
parameter: RP-LC retention time (s)

1: CN(C)CCN(Cc1ccco1)C(=O)Cn1nc(Cc2ccncc2)c2ccccc2c1=O
2: COC(=O)c1ccc2c(=O)n(-c3ccc(OC)cc3)c(N3CCN(c4ccccn4)CC3)nc2c1
3: O=C(C1=NN(Cc2ccccc2F)c2cc(Cl)ccc2S1(=O)=O)N1CCOCC1
# sort list by recorded RP-LC retention time, greatest to least Returns: the labels arranged in the requested order. 2, 3, 1
(2: 1290 s, 3: 833 s, 1: 548 s)

###

# protocol-notes: gradient 5% acetonitrile 3 min, to 50% in 2 min, to 85% in 15 min, held 3 min, 100 µL/min
# experimental-conditions: column: Zorbax Extend-C18 2.1 x 50 mm; eluents: water / acetonitrile, 0.1% formic acid
parameter: RP-LC retention time (s)

Please give the documented RP-LC retention time of "COCCCNC(=O)c1cc(-c2ccc(F)cc2)c[nH]1" 726

Please give the documented RP-LC retention time of "CCCn1nc(C)cc1CN(C)C(=O)c1cn2ccccc2n1" 591

Please give the documented RP-LC retention time of "CCC(=O)N1CCc2c(C(=O)N3CCN(c4cccc(OC)c4)CC3)cccc21" 819

Please give the documented RP-LC retention time of "COc1cccc(-n2c(=O)c(C(=O)Nc3ccc(F)cc3Cl)c(O)c3cccnc32)c1" 1290

Please give the documented RP-LC retention time of "CCN(CC)c1nc2ccsc2c(=O)n1CC(=O)NCc1ccc(F)cc1F" 868

Please give the documented RP-LC retention time of "O=C(c1ccc(F)cc1)N1CCN(S(=O)(=O)c2cc3c4c(c2)CCC(=O)N4CCC3)CC1" 808

P: Cc1oc(C(C)C)nc1C(=O)NCc1cccs1
Q: Cc1cccn2c(=O)nc(SCC(=O)NCc3ccco3)nc12
Lowest RP-LC retention time? choose P or Q Indicate your choice by writing its label. Q

###

# protocol-notes: gradient 5% acetonitrile 3 min, to 50% in 2 min, to 85% in 15 min, held 3 min, 100 µL/min
# experimental-conditions: column: Zorbax Extend-C18 2.1 x 50 mm; eluents: water / acetonitrile, 0.1% formic acid
parameter: RP-LC retention time (s)

Please give the documented RP-LC retention time of "O=c1cc(-c2ccc(O)cc2)oc2cc(O[C@@H]3O[C@H](CO)[C@H](O)[C@H](O)[C@H]3O)cc(O)c12" 746

Please give the documented RP-LC retention time of "CCc1cccc(C)c1Nc1c(-c2ccc(F)cc2)nc2cnccn12" 1010

Please give the documented RP-LC retention time of "O=C(Cc1csc(NC(=O)C2CC2)n1)NCc1ccccn1" 519

Please give the documented RP-LC retention time of "Fc1cc(F)cc(-c2nc(-c3cccc(-c4ccn[nH]4)c3)no2)c1" 1060

Please give the documented RP-LC retention time of "Cc1ccc(Cl)cc1N1CCN(C(=O)c2ccc(Cn3cncn3)cc2)CC1" 877

A: COc1ccc(-c2noc(-c3ccc(N4CCN(c5ccccc5OC)CC4)nc3)n2)cc1
B: COCCN1C(=O)[C@H]2CN(Cc3cccc(Cl)c3)C[C@H]2C1=O
Lowest RP-LC retention time? choose A or B Indicate your choice by writing its label. B

P: Cc1sc(-c2cc(C(F)(F)F)on2)cc1S(=O)(=O)N1CCN(c2ccc(Cl)cc2)CC1
Q: COc1cc(OC)c(NC(=O)Nc2cc(C)on2)cc1Cl
When their RP-LC retention time values are compared, which is larger, P or Q ? Indicate your choice by writing its label. P
(P: 1400 s, Q: 865 s)

I: Cc1ccc(Cl)cc1NC(=O)N1CCc2nc(-c3ccc(F)cc3)ncc2C1
II: COc1ccc(-c2cc3nn(CC(=O)Nc4cccc(OC)c4)c(=O)n3c(C)n2)cc1
Lowest RP-LC retention time? choose I or II Indicate your choice by writing its label. II
(II: 681 s, I: 1030 s)

###

# protocol-notes: gradient 5% acetonitrile 3 min, to 50% in 2 min, to 85% in 15 min, held 3 min, 100 µL/min
# experimental-conditions: column: Zorbax Extend-C18 2.1 x 50 mm; eluents: water / acetonitrile, 0.1% formic acid
parameter: RP-LC retention time (s)

Example results:
Please give the documented RP-LC retention time of "COc1ccccc1N1CCN(Cc2nc(-c3ccccc3)no2)CC1" 798

Please give the documented RP-LC retention time of "COCCc1noc([C@@H]2CN(Cc3ccc(C(C)C)cc3)C[C@H]2CO)n1" 663

Please give the documented RP-LC retention time of "O=C(Cn1c2ccccc2c2ncn(Cc3nc(C4CC4)no3)c(=O)c21)Nc1ccc2c(c1)OCCO2" 808

Please give the documented RP-LC retention time of "Cc1nc(C)c(C(=O)Nc2nc(-c3ccccc3)c(C)s2)s1" 930

Please give the documented RP-LC retention time of O=C(NC1CCN(c2cc(-c3cccs3)[nH]n2)C1)c1ccccn1 (centres undefined) 667

Please give the documented RP-LC retention time of "CCn1cc(CCNS(=O)(=O)c2cccc(F)c2)c2cccnc21" 774

P: CN1CCCC1c1nc(C2CN(S(=O)(=O)c3ccc(C#N)cc3)C2)no1 (centres undefined)
Q: O=C(NCCC1=CCCCC1)C1CCN(C(=O)c2ncn3c2COC(c2ccc(Cl)cc2)C3)CC1 (centres undefined)
When their RP-LC retention time values are compared, which is larger, P or Q ? Indicate your choice by writing its label. Q

###

# protocol-notes: gradient 5% acetonitrile 3 min, to 50% in 2 min, to 85% in 15 min, held 3 min, 100 µL/min
# experimental-conditions: column: Zorbax Extend-C18 2.1 x 50 mm; eluents: water / acetonitrile, 0.1% formic acid
parameter: RP-LC retention time (s)

Example results:
Please give the documented RP-LC retention time of "COc1ccccc1-c1nnc(-c2ccc(OC)c(S(=O)(=O)N3CCCCCC3)c2)o1" 1010

Please give the documented RP-LC retention time of "CC(C)NC(=O)c1ccc(OCC2CCN(C(=O)c3ccsc3)CC2)cc1" 797

Please give the documented RP-LC retention time of "O=S(=O)(c1ccccc1F)N1CC(c2nc(Cc3ccccc3)no2)C1" 976

P: COc1cccc(-c2noc(C3CCCN3C(=O)Nc3ccc(OC)c(F)c3)n2)c1 (stereo not given)
Q: Cc1ccnc(NC(=O)NCCCSc2nccc(C)n2)n1
When their RP-LC retention time values are compared, which is larger, P or Q ? Indicate your choice by writing its label. P
(P: 946 s, Q: 643 s)

###

# protocol-notes: gradient 5% acetonitrile 3 min, to 50% in 2 min, to 85% in 15 min, held 3 min, 100 µL/min
# experimental-conditions: column: Zorbax Extend-C18 2.1 x 50 mm; eluents: water / acetonitrile, 0.1% formic acid
parameter: RP-LC retention time (s)

Please give the documented RP-LC retention time of "O=C(NCc1ccc(-c2noc(Cc3ccc(F)cc3)n2)s1)C1CC1" 894

Please give the documented RP-LC retention time of "O=c1cc(-c2ccccc2)nc2n1CCN2CCCN1CCOCC1" 582

Please give the documented RP-LC retention time of "COC(=O)c1cc2ccsc2n1Cc1cccc(C#N)c1" 1010

P: Cc1ccc(-c2nnc(-c3ccccc3Cl)o2)cc1S(=O)(=O)N(C)C
Q: COc1ccc(F)cc1-c1cc(N2CCN(C(=O)NCC(C)C)CC2)ncn1
When their RP-LC retention time values are compared, which is larger, P or Q ? Indicate your choice by writing its label. P
(P: 999 s, Q: 645 s)

###

# protocol-notes: gradient 5% acetonitrile 3 min, to 50% in 2 min, to 85% in 15 min, held 3 min, 100 µL/min
# experimental-conditions: column: Zorbax Extend-C18 2.1 x 50 mm; eluents: water / acetonitrile, 0.1% formic acid
parameter: RP-LC retention time (s)

Example results:
Please give the documented RP-LC retention time of "CC(=O)Nc1ccc(C2(C(=O)NCc3ccc(C)cc3)CCC2)cc1" 790

Please give the documented RP-LC retention time of O=C(NCC1CCCO1)c1nc(-c2ccnc(N3CCCC3)c2)no1 (stereo not given) 597

Please give the documented RP-LC retention time of "COC(=O)C1=CN(c2cc(Cl)ccc2OC)c2cc(F)ccc2S1(=O)=O" 909

Please give the documented RP-LC retention time of "COc1cc(NC(=O)N2CCC(c3cnn(-c4ccccc4)c3)CC2)cc(OC)c1OC" 852

Please give the documented RP-LC retention time of "Cn1nnnc1SCC(=O)N1CCC(C(=O)NCC(F)(F)F)CC1" 600

Please give the documented RP-LC retention time of "CNCc1ccc(-c2ccccc2Cl)o1" 642

I: Cc1cc(=O)n(CC(=O)Nc2ccccc2F)c(N)n1
II: O=C(C1CCN(c2nc3ccc(-c4cccs4)nc3s2)CC1)N1CCCC1
Lowest RP-LC retention time? choose I or II Indicate your choice by writing its label. I
(I: 581 s, II: 893 s)
